biological target: Ribosomal protein S6 kinase beta-1 (Homo sapiens, UniProt P23443, T412E); experiment: P70S6K Enzyme Assay: P70S6K inhibitor compounds are diluted and plated in 96 well plates. A reaction mixture including the following components is then added to the compound plate to initiate the enzyme reaction; P70S6K (3 nM, T412E mutant, Millipore) is mixed with 24 uM ATP in an assay buffer containing 100 mM Hepes (pH 7.5), 5 mM MgCl2, 1 mM DTT, 0.015% Brij and 1 uM of the substrate peptide FITC-AHA-[…]-OH (derived from the S6 ribosomal protein sequence, FITC=fluorescein isothiocyanate, AHA=6-aminohexanoic acid). The reaction is incubated for 90 min at 25° C., before the addition of 10 mM EDTA to stop the reaction. The proportion of substrate and product (phosphorylated) peptide is analysed on a Caliper Life Sciences Lab Chip 3000, using a pressure of -1.4 psi, and upstream and downstream voltages of -3000 and -700 respectively. Product peaks are resolved before substrate peaks on the resulting chromatograms.
Sequence (P23443 whole entry T412E): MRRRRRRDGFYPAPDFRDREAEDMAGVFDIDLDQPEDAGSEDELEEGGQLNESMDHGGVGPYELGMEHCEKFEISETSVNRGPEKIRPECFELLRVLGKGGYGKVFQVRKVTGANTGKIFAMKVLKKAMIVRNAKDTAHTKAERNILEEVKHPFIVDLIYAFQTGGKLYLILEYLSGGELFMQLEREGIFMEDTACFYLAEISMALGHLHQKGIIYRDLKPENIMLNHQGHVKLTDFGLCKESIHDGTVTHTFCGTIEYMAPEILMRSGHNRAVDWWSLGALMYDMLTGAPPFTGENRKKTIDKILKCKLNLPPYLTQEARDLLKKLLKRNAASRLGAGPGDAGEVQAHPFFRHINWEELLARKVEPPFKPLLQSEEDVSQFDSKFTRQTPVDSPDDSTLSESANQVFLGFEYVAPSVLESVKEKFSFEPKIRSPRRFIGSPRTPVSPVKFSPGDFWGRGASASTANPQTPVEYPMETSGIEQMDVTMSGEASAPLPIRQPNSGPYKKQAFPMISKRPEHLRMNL
measurement.label: IC50 (nM)
Write the answer as a number in nM, unit excluded.

Lookup: Can you share its IC50? I mean this compound: `CCc1c(N)ncnc1N1CCC(c2nc(-c3cccc(Cl)n3)cn2CCN2CCC2)CC1`
Found: 58
